# measurement protocol: Cytotoxicity against mouse RAW264.7 cells assessed as inhibition of cell viability at 100 uM measured after 48 hrs by MTT assay relative to control
# Format: toxicity
# test settings: read-out: INH
Would you kindly list cytotoxicity at 48 h, 100 µM for each of these compounds?
Give bare numbers, in %.

Observe how each entry below is paired with its result.
INSERT INTO results (sample_smiles, value_type, observed_result) VALUES
  ('O=c1nc(N2CCN(C(=S)Nc3ccc([N+](=O)[O-])cc3)CC2)sc2ccc(C(F)(F)F)cc12', 'cytotoxicity at 48 h, 100 µM', 5.48),
  ('O=c1nc(N2CCN(C(=S)Nc3ccc([N+](=O)[O-])cc3)CC2)sc2ccc(Cl)cc12', 'cytotoxicity at 48 h, 100 µM', 1.45),
  ('Cc1ccc(CN2CCN(c3nc(=O)c4cc([N+](=O)[O-])ccc4s3)CC2)cc1', 'cytotoxicity at 48 h, 100 µM', 26.5),
  ('O=c1nc(N2CCN(Cc3ccc([N+](=O)[O-])cc3)CC2)sc2ccc(C(F)(F)F)cc12', 'cytotoxicity at 48 h, 100 µM', 14.6),
  ('O=C(Nc1ccc(Cl)cc1)N1CCN(c2nc(=O)c3cc(Cl)ccc3s2)CC1', 'cytotoxicity at 48 h, 100 µM', 2.56),
  ('Cc1ccc(CN2CCN(c3nc(=O)c4cc(Cl)ccc4s3)CC2)cc1', 'cytotoxicity at 48 h, 100 µM', 2.36),
  ('O=c1nc(N2CCN(C(=S)Nc3ccccc3)CC2)sc2ccc(Cl)cc12', 'cytotoxicity at 48 h, 100 µM', 2.35),
  ('O=c1nc(N2CCN(C(=S)Nc3ccc(Cl)cc3)CC2)sc2ccc(C(F)(F)F)cc12', 'cytotoxicity at 48 h, 100 µM', 3.15),
  ('O=c1nc(N2CCN(C(=S)Nc3ccccc3)CC2)sc2ccc(C(F)(F)F)cc12', 'cytotoxicity at 48 h, 100 µM', 6.48),
  ('O=c1nc(N2CCN(Cc3ccc(Cl)cc3)CC2)sc2ccc([N+](=O)[O-])cc12', 'cytotoxicity at 48 h, 100 µM', 1.56);

Could I get cytotoxicity at 48 h, 100 µM for every one of these entries?
1. Cc1ccc(CN2CCN(c3nc(=O)c4cc(C(F)(F)F)ccc4s3)CC2)cc1
2. O=c1nc(N2CCN(C(=S)Nc3ccccc3)CC2)sc2ccc([N+](=O)[O-])cc12
3. O=c1nc(N2CCN(Cc3ccc([N+](=O)[O-])cc3)CC2)sc2ccc(Cl)cc12

1: 18.6; 2: 3.25; 3: 5.48

###

# measurement protocol: Cytotoxicity against mouse RAW264.7 cells assessed as inhibition of cell viability at 100 uM measured after 72 hrs by MTT assay relative to control
# Assay type: toxicity
# test settings: read-out: INH
Please respond with Yes when measured cytotoxicity at 72 h, 100 µM is strictly beneath 20%, and with No in all other cases.

INSERT INTO assay_data (sample_smiles, category) VALUES
  ('Cc1ccc2c(c1)C(=O)C(=O)N2CCN1CCN(NCc2ccccc2OCc2ccccc2)CC1', 'No');

In plain terms, does "O=C1C(=O)N(CCN2CCN(NCc3cccc(Cl)c3Cl)CC2)c2ccccc21" come in under 20% for cytotoxicity at 72 h, 100 µM?
Yes

cytotoxicity at 72 h, 100 µM under 20%? Item: "Cc1ccc2c(c1)C(=O)C(=O)N2CCN1CCN(NCc2ccc(Cl)cc2Cl)CC1"
No

Regarding "O=C1C(=O)N(CCN2CCN(NCc3ccc(Cl)cc3Cl)CC2)c2ccc(Cl)cc21" , kindly confirm whether its cytotoxicity at 72 h, 100 µM is beneath 20%.
No

Criterion: cytotoxicity at 72 h, 100 µM strictly below 20%. Is it met by "O=C1C(=O)N(CCN2CCN(NCc3ccc([N+](=O)[O-])o3)CC2)c2ccc(Cl)cc21" ?
No

Would you kindly verify if cytotoxicity at 72 h, 100 µM of "COc1ccc2c(c1)C(=O)C(=O)N2CCN1CCN(NCc2ccc([N+](=O)[O-])o2)CC1" is strictly less than 20%?
No

Just wondering, is cytotoxicity at 72 h, 100 µM of "Cc1ccc2c(c1)C(=O)C(=O)N2CCN1CCN(NCc2cccc(Cl)c2Cl)CC1" below 20%?
No

Below 20% on cytotoxicity at 72 h, 100 µM? Entry "COc1ccc2c(c1)C(=O)C(=O)N2CCN1CCN(NCc2ccccc2C(F)(F)F)CC1"
Yes

Given the entry "O=C1C(=O)N(CCN2CCN(NCc3ccc(Cl)cc3Cl)CC2)c2ccc(F)cc21" , would its reported cytotoxicity at 72 h, 100 µM be below 20%?
Yes
